Quick reference for inhibition among some compounds
biological target: Estrogen receptor beta (Homo sapiens); assay: Antagonist activity at human Gal4-fused ER-beta expressed in HEK293 cells assessed as inhibition of 17beta-estradiol-induced effect at 3 uM by luciferase reporter gene assay; assay type: cell-based

Consider the following illustrative entries.
>>> result("CCC[Si](CCC)(c1ccc(OS(N)(=O)=O)c(C)c1)c1ccc(OS(N)(=O)=O)c(C)c1")
"18%"
>>> result("CC[Si](CC)(c1ccc(OS(N)(=O)=O)c(C)c1)c1ccc(OS(N)(=O)=O)c(C)c1")
"47.2%"
>>> result("CCC(CC)(c1ccc(OS(N)(=O)=O)cc1)c1ccc(OS(N)(=O)=O)cc1")
"49.3%"

Would you kindly look at the next entry?
Record NS(=O)(=O)Oc1ccc(Cc2ccc(OS(N)(=O)=O)cc2)cc1 has Estrogen receptor beta (Homo sapiens) inhibition equal to 2.25%

----------
target: Estrogen receptor beta (Homo sapiens, UniProt Q92731); test: Antagonist activity at human Gal4-fused ER-beta expressed in HEK293 cells assessed as inhibition of 17beta-estradiol-induced effect at 3 uM by luciferase reporter gene assay; type: cell-based
Sequence (Q92731 whole entry, the tested form may be a part): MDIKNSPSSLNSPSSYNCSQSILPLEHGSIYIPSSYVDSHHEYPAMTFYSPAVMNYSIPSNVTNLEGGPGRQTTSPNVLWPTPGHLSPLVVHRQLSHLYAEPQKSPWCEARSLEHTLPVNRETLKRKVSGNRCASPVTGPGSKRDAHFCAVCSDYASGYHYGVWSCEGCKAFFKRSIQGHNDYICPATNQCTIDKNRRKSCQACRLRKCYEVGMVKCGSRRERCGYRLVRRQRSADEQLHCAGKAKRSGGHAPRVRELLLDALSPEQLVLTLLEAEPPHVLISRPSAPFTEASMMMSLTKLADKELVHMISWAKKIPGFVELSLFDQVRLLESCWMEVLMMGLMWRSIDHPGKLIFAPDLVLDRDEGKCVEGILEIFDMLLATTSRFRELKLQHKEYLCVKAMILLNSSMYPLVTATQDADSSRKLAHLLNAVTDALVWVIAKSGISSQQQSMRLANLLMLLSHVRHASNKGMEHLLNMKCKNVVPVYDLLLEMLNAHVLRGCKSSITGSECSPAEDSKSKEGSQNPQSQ
Activity calls are given as the source filed them. The calls are words filed in the database; no cut-off is given here.
Observation type: inhibition

Observe how each entry below is paired with its result.
>>> result("CCCCC(CCCC)(c1ccc(OS(N)(=O)=O)c(C)c1)c1ccc(OS(N)(=O)=O)c(C)c1")
"inactive"
>>> result("NS(=O)(=O)Oc1ccc(Sc2ccc(OS(N)(=O)=O)cc2)cc1")
"inactive"
>>> result("CCCC(CCC)(c1ccc(OS(N)(=O)=O)c(C)c1)c1ccc(OS(N)(=O)=O)c(C)c1")
"43.9%"
>>> result("C[Si](C)(c1ccc(OS(N)(=O)=O)cc1)c1ccc(OS(N)(=O)=O)cc1")
"inactive"
>>> result("CC[Si](CC)(c1ccc(OS(N)(=O)=O)cc1)c1ccc(OS(N)(=O)=O)cc1")
"62.8%"
>>> result("CC(C)(c1ccc(OS(N)(=O)=O)cc1)c1ccc(OS(N)(=O)=O)cc1")
"7.79%"

Value of inhibition reported for the compound CC[Si](CC)(c1ccc(O)c(C)c1)c1ccc(O)c(C)c1 is 53.5%

Summary for this compound, CCC(CC)(c1ccc(OS(N)(=O)=O)c(C)c1)c1ccc(OS(N)(=O)=O)c(C)c1 : inhibition is 49.3%

----------
Catalogue of compounds with associated inhibition
molecular target: Steryl-sulfatase (Homo sapiens); experiment: Inhibition of steroid sulfatase in human MCF7 cells assessed as conversion of [3H]E1S to [3H]E1 and [3H]E2 at 0.1 uM after 5 hrs by liquid scintillation counting; type: cell-based
Provide only the numeric value, understood in %.

>>> numeric_result("CCC(CC)(c1ccc(OS(N)(=O)=O)cc1)c1ccc(OS(N)(=O)=O)cc1")
11
>>> numeric_result("C[Si](C)(c1ccc(O)cc1)c1ccc(OS(N)(=O)=O)cc1")
25.2
>>> numeric_result("CC[Si](CC)(c1ccc(OS(N)(=O)=O)c(C)c1)c1ccc(OS(N)(=O)=O)c(C)c1")
22.6

Now for a further compound.
The recorded inhibition with Steryl-sulfatase (Homo sapiens) for CC[Si](CC)(c1ccc(OS(N)(=O)=O)cc1)c1ccc(OS(N)(=O)=O)cc1 was 62

----------
biological target: Estrogen receptor (Homo sapiens); test: Agonist activity at human Gal4-fused ER-alpha expressed in HEK293 cells at 10 uM by luciferase reporter gene assay relative to 17beta-estradiol; type: cell-based
Activity calls are given as the source filed them. The calls are words filed in the database; no cut-off is given here.
Observation type: Activity

>>> result("C[Si](C)(c1ccc(OS(N)(=O)=O)cc1)c1ccc(OS(N)(=O)=O)cc1")
"10.8%"
>>> result("C[Si](C)(c1ccc(O)cc1)c1ccc(O)cc1")
"25.3%"
>>> result("CCC(CC)(c1ccc(OS(N)(=O)=O)cc1)c1ccc(OS(N)(=O)=O)cc1")
"inactive"
>>> result("CC[Si](CC)(c1ccc(O)cc1)c1ccc(O)cc1")
"7.1%"

Considering CC[Si](CC)(c1ccc(OS(N)(=O)=O)c(C)c1)c1ccc(OS(N)(=O)=O)c(C)c1 , its Activity with Estrogen receptor (Homo sapiens) was recorded as inactive

Here CCC(CC)(c1ccc(OS(N)(=O)=O)c(C)c1)c1ccc(OS(N)(=O)=O)c(C)c1 was tested on Estrogen receptor (Homo sapiens), and its Activity came to inactive

----------
biological target: Estrogen receptor beta (Homo sapiens, UniProt Q92731); test: Antagonist activity at human Gal4-fused ER-beta expressed in HEK293 cells assessed as inhibition of 17beta-estradiol-induced effect by luciferase reporter gene assay; assay type: cell-based; conditions: read-out: IC50
Observation type: IC50 (nM)
Give a bare numeral; the unit nM is implied.

For record CCC[Si](CCC)(c1ccc(O)c(C)c1)c1ccc(O)c(C)c1 the listed IC50 is 804

----------
Target: Estrogen receptor (Homo sapiens)
Sequence (P03372 whole entry): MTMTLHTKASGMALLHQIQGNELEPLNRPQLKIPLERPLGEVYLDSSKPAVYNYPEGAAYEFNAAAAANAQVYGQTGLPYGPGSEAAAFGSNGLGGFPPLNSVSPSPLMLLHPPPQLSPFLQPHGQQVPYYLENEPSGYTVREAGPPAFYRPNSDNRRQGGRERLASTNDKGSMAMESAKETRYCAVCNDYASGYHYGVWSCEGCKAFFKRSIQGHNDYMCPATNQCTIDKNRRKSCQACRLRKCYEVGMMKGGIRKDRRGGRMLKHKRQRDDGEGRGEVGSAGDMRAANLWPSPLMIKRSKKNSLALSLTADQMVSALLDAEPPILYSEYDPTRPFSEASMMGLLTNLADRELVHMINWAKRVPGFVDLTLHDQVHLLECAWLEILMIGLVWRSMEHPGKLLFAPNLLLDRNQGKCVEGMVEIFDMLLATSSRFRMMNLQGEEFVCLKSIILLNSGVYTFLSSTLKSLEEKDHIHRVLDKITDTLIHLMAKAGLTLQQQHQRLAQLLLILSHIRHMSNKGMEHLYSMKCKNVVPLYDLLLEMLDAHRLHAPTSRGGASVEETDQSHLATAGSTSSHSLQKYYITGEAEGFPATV
Experiment: Agonist activity at human Gal4-fused ER-alpha expressed in HEK293 cells by luciferase reporter gene assay
Assay type: cell-based
Observation type: EC50

A selection of reference data follows.
>>> result("CCC(CC)(c1ccc(O)cc1)c1ccc(O)cc1")
"Not Active"
>>> result("CCC(CC)(c1ccc(O)c(C)c1)c1ccc(O)c(C)c1")
"Not Active"
>>> result("NS(=O)(=O)Oc1ccc(Sc2ccc(OS(N)(=O)=O)cc2)cc1")
"Active"
>>> result("CCCC(CCC)(c1ccc(O)c(C)c1)c1ccc(O)c(C)c1")
"Not Active"
>>> result("CCCCC(CCCC)(c1ccc(O)c(C)c1)c1ccc(O)c(C)c1")
"Not Active"

Next molecule, EC50 to be filled in.
Record NS(=O)(=O)Oc1ccc(Cc2ccc(OS(N)(=O)=O)cc2)cc1 , field EC50: Active

----------
target: Steryl-sulfatase (Homo sapiens) (UniProt P08842); test: Inhibition of steroid sulfatase in human MCF7 cells assessed as conversion of [3H]E1S to [3H]E1 and [3H]E2 at 1 uM after 5 hrs by liquid scintillation counting; assay type: cell-based
Here the recorded inhibition is given for each entry.
Give the number; % is assumed, so skip it.

Use these answered entries as a reference point.
>>> numeric_result("CCCC(CCC)(c1ccc(OS(N)(=O)=O)c(C)c1)c1ccc(OS(N)(=O)=O)c(C)c1")
21.1
>>> numeric_result("CCC[Si](CCC)(c1ccc(OS(N)(=O)=O)c(C)c1)c1ccc(OS(N)(=O)=O)c(C)c1")
18.7

Field inhibition (Steryl-sulfatase (Homo sapiens) (UniProt P08842)), entry CCC(CC)(c1ccc(OS(N)(=O)=O)cc1)c1ccc(OS(N)(=O)=O)cc1 : 29.9

Fill in: Steryl-sulfatase (Homo sapiens) (UniProt P08842) inhibition for NS(=O)(=O)Oc1ccc2c3c(c(=O)oc2c1)CCCCC3 = 100

Reading of inhibition for NS(=O)(=O)Oc1ccc(Sc2ccc(OS(N)(=O)=O)cc2)cc1 with Steryl-sulfatase (Homo sapiens) (UniProt P08842): 89.7

Measured inhibition for this entry CC[Si](CC)(c1ccc(OS(N)(=O)=O)c(C)c1)c1ccc(OS(N)(=O)=O)c(C)c1 on Steryl-sulfatase (Homo sapiens) (UniProt P08842): 82.6

Test item CCC(CC)(c1ccc(OS(N)(=O)=O)c(C)c1)c1ccc(OS(N)(=O)=O)c(C)c1 ; Steryl-sulfatase (Homo sapiens) (UniProt P08842); reported inhibition was 25.4

----------
Molecular target: Steryl-sulfatase (Homo sapiens)
Sequence (whole entry): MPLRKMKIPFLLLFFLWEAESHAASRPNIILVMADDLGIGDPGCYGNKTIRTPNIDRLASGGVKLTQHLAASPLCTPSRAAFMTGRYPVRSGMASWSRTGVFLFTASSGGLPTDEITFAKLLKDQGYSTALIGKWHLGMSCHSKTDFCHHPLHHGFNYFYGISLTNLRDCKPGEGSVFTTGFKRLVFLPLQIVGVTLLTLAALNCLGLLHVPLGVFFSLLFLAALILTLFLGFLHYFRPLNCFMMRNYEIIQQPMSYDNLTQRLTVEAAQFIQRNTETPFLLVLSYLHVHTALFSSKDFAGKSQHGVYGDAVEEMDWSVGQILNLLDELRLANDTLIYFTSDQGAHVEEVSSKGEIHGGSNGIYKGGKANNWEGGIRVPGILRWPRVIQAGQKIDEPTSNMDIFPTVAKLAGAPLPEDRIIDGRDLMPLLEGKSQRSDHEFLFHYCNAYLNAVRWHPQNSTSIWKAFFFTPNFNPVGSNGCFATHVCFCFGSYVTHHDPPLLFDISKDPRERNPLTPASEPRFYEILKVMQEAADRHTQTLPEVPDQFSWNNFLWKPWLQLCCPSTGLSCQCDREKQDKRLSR
Test: Inhibition of steroid sulfatase in human MCF7 cells assessed as conversion of [3H]E1S to [3H]E1 and [3H]E2 at 0.1 uM after 5 hrs by liquid scintillation counting
Assay type: cell-based
Observation type: inhibition

Some molecules with known inhibition results, for comparison:
>>> result("C[Si](C)(c1ccc(O)cc1)c1ccc(O)cc1")
"< 10%"
>>> result("CC(C)(c1ccc(OS(N)(=O)=O)cc1)c1ccc(OS(N)(=O)=O)cc1")
"< 10%"
>>> result("CCCC[Si](CCCC)(c1ccc(OS(N)(=O)=O)c(C)c1)c1ccc(OS(N)(=O)=O)c(C)c1")
"< 10%"
>>> result("CN(C)S(=O)(=O)Oc1ccc([Si](C)(C)c2ccc(OS(=O)(=O)N(C)C)cc2)cc1")
"< 10%"
>>> result("NS(=O)(=O)Oc1ccc(Cc2ccc(OS(N)(=O)=O)cc2)cc1")
"< 10%"

// next item, inhibition requested
// inhibition lookup, molecule = CCCC(CCC)(c1ccc(OS(N)(=O)=O)c(C)c1)c1ccc(OS(N)(=O)=O)c(C)c1 , result: < 10%
